B1: library; a variant is named by its letters at N, in order (parent)
chain: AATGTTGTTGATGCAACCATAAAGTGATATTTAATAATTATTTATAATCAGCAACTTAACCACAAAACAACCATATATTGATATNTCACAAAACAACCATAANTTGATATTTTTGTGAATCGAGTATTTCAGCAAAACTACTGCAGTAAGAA

variants of: B1; assay: relative integration efficiency (T-RL orientation) vs wild-type transposon end (log2 (normalized fold change)); transposon end mutated: left end; higher = more efficient transposition; details: with VchCAST RNA-guided transposition machinery (E. coli BL21(DE3) host, lacZ target)
I would appreciate it if you labelled entries true when relative integration efficiency (log2) is -0.1 or higher, otherwise false.

CG A16T C17G: true
CG A40G: false
CG A21T A75T A101T: false
TA A16C G24T T32G A33C A70C T76A T86G A96C T110A T113A: false
CG T20A A21T: false
CG T104G T105G: false
CG A47C T48G: false
CG A107T T108A A109T T110A: false
CG T110A: true
CG T116G: true
CG T120A: false
CG A22T T76A A102T: true
CA A96C T112G T113C: false
CG A2G: true
CG A37T: true
CG T79G G80T: false
CG T5G T6G G7T T8G: false
CG A44C T45G: true
CG G80T A81C: false
CG A107C T108G: false
CC T104A: false
CG C49T: true
TA A16C G24T T32G A33C A70C T76A T86G T104G T113A: false
TA A16C G24T T30A T76A A77G C87T T104A T110A T113A: false
CG A27G: false
CG A91T A92T: true
CG T48A C49G A50T G51C C52G A53T A54T C55G T56A T57A A58T: false
CG A37T T38A: true
CG A96T C97G C98G A99T: false
CG A34C T35G: false
TA T76A A77G C87T A102T T111C T113C: false
CG C55A T56G: true
TA A16C G24T T32G A33C T76A T78G C87A A102T T111C T113C: false
CG A91T A92T A93T C94G: false
CG A53C A54C: true
TA A22T G24T T31C A33C A70C T76A T86G A102T T111C T113C: false
CG A54T C55G T56A T57A: false
CG T3A: false
CG C97G C98G: false
TA A16C G24T T30A T76A T78A T84A C87A A102T T111C T113C: false
CG T111G T112G: false
TA A23G G24T A33T T76A A77G C87T A96C T112G T113C: false
CG T48A C49G: true
CG C14G: true
CG A91G: false
AG T84G T86G C87A: true
CA A16C G24T T30A T104A T110A T113A: false
CG A91C A92C A93C C94A: false
GG: true
CG T116G G117T A118C A119C T120G C121A G122T A123C G124T T125G: true
CG T28A: false
CG A11T T12A G13C C14G: false
CG G51T C52A A53C A54C: false
TA A22T G24T T31C A33C T76A T78A T84A C87A T104G T113A: false
AG A83C T84G T86G: false
CG C72A A73C: false
CG A37C: false
CG C89A A90C A91C A92C: false
TA G24A T30A T76A A77G C87T A102T T111C T113C: false
CG A16T: true
TA A16C G24T T32G A33C A70C T76A T86G T104A T110A T113A: false
